Recorded cell viability values for a group of compounds are listed next.
Tested on: SEM cells
EXPERIMENT_DESCRIPTION: cell viability relative to DMSO control; higher = less cytotoxic
CONDITION_INFO: HPLM + 10% dialyzed FBS; 48 h; 1.71 µM
Reply numerically in %, unit not repeated.

Example cases with answers are listed next.
CC1(C)CNc2cc(NC(=O)c3cccnc3NCc3ccncc3)ccc21 :: 101
CCCCC(C=O)NC(=O)C(CC(C)C)NC(=O)OCc1ccccc1 (centres undefined) :: 102
O=C(Nc1ncc(SCCN2CCCC2)s1)[C@]1(c2ccc([S+](=O)([O-])C3CC3)cc2)C[C@H]1C1CCCCC1 :: 63.2
O=C(Cc1ccc(-c2ccc(OCCN3CCOCC3)cc2)cn1)NCc1ccccc1 :: 20.8
CC1(N2CCC(n3c([C@@H]4CCCNC4)nc4ccccc43)CC2)CCCCCCC1 :: 96
NCCCCNCCCN :: 99.2

[in] I'd like to know its cell viability. The compound in question is C=CC(=O)Nc1cccc(Nc2nc(NC3CCC(N(C)C)CC3)nc3c2ncn3C(C)C)c1 (centres undefined)
[out] 40.6

[in] I'd like to know its cell viability. The compound in question is C=CCc1cccc(/C=N/NC(=O)CN2CCN(Cc3ccccc3)CC2)c1O
[out] 89.4

[in] I'd like to know its cell viability. The compound in question is C[S+](=O)([O-])c1ccc(-c2cnc(N)c(C(=O)Nc3ccccc3)n2)cc1
[out] 110

====

Recorded cell viability values for a group of compounds are listed next.
Test system: P12-Ichikawa
EXPERIMENT_DESCRIPTION: cell viability relative to DMSO control; higher = less cytotoxic
CONDITION_INFO: RPMI 5 mM glucose + 10% FBS; 48 h; 0.00234 µM
Reply numerically in %, unit not repeated.

Nc1nc(N)c2nc(-c3cccc(O)c3)c(-c3cccc(O)c3)nc2n1 :: 117
COC[C@H](c1ccc(C(F)(F)F)cc1)N1CCN(C2(C)CCN(C(=O)c3c(C)ncnc3C)CC2)C[C@H]1C.O=C(O)/C=C\C(=O)O :: 123
CC/1=C(/C(CC(=O)N1)C2=CC=C(C=C2)C(F)(F)F)C(=O)NC3=C(F)C=C4[NH]N=CC4=C3 (stereo not drawn) :: 104
COC1=CC=C(C=C1O)C/2=C/C(=O)C3=C(O2)C=C(O)C=C3O :: 92.1
CC1(N2CCC(n3c([C@@H]4CCCNC4)nc4ccccc43)CC2)CCCCCCC1 :: 95
CN1CCCC(CC1)N2\N=C(CC3=CC=C(Cl)C=C3)/C4=C(C=CC=C4)C2=O (stereo not drawn) :: 105

[in] I'd like to know its cell viability. The compound in question is CCC(=C/[C@H](C)C/C=C/C(C)=C/[C@@H](C)C(=O)[C@@H](C)[C@H](O)[C@@H](C)C/C(C)=C/C(=O)O)/C=C/[C@@H]1OC(=O)C=C[C@@H]1C
[out] 119

[in] I'd like to know its cell viability. The compound in question is Nc1nnc(-c2cccc(Cl)c2Cl)c(N)n1
[out] 98.1

====

Tested on: NOMO1
EXPERIMENT_DESCRIPTION: cell viability relative to DMSO control; higher = less cytotoxic
CONDITION_INFO: HPLM + 10% dialyzed FBS; 48 h; 1.71 µM
Output yes for records whose cell viability is lower than 90%, no for records at or above 90%.

Please review the following examples before continuing.
C[C@]12CC[C@H]3[C@@H](CCC/4=C/C(=O)CC[C@]34C)[C@@H]1CC[C@@H]2O :: no
CCN(C(=O)C/1=C(O)/C2=C(C=CC=C2Cl)N(C)C1=O)C3=CC=CC=C3 :: yes
OC(=O)C(CC/1=C/C(=O)NC2=CC=CC=C12)NC(=O)C3=CC=C(Cl)C=C3 (centres undefined) :: no
COC/1=C/C=C2\C(=C/C1=O)[C@H](CCC3=CC(=C(OC)C(=C23)OC)OC)NC(C)=O :: yes
O=C(Nc1ncc(-c2cc(C(F)F)nn2-c2c(Cl)cccc2Cl)s1)C1CC1 :: no
CN1c2ccccc2C(=O)N2CCc3c([nH]c4ccccc34)C21 (centres undefined) :: no
COc1ncnc(N[S+](=O)([O-])c2ccc(N)cc2)c1OC :: yes

Continue with the next compound.
[in] Consider the compound O=C(O)CCn1c2c(c3ccccc31)C[C@H](N[S+](=O)([O-])c1ccc(F)cc1)CC2 . Is its cell viability strictly less than 90%?
[out] no

====

Test system: SEM cells
EXPERIMENT_DESCRIPTION: cell viability relative to DMSO control; higher = less cytotoxic
CONDITION_INFO: RPMI 5 mM glucose + 10% FBS; 48 h; 15.4 µM
REPORTED_METRIC: cell viability
State the value with its unit after it.

CN1\C(=C(\O)C2=C(C=CC=C2)[S+]1([O-])=O)C(=O)NC3=CC=CC=N3 :: 54.9%
COC(=O)C1C2CC3c4[nH]c5cc(OC)ccc5c4CCN3CC2CC(OC(=O)c2cc(OC)c(OC)c(OC)c2)C1OC (centres undefined) :: 85.2%
CC1(C)CNc2cc(NC(=O)c3cccnc3NCc3ccncc3)ccc21 :: 70.1%
CN(C)c1nc(Cc2ccc(NC(=O)c3ccc4ccccc4c3)cc2)nc(Cl)c1CC(=O)O :: 102%
C[C@]12CC[C@@H]3c4ccc(O)cc4CC[C@H]3[C@@H]1C[C@@H](O)[C@@H]2O :: 82.6%

[in] I'd like to know its cell viability. The molecule in question is N#Cc1ccnc(Nc2cc(C3CCN(C4COC4)CC3)cc(N3CCC(F)(F)C3)n2)c1
[out] 43.7%

[in] I'd like to know its cell viability. The molecule in question is COc1cccc([C@@H](C)NCCCc2ccccc2Cl)c1
[out] 100%

[in] I'd like to know its cell viability. The molecule in question is O=C\1N(N\C=C1[N]2C=CN=N2)C3=NC=NC(=C3)N4CCOCC4
[out] 14.5%

[in] I'd like to know its cell viability. The molecule in question is [O-]C(=O)C1=C(C(=C(Cl)C(=C1Cl)Cl)Cl)C/2=C/3\C=C(I)/C(=O)/C(=C3OC4=C2C=C(I)C(=C4I)[O-])I
[out] 109%

====

System: NOMO1
EXPERIMENT_DESCRIPTION: cell viability relative to DMSO control; higher = less cytotoxic
CONDITION_INFO: RPMI 5 mM glucose + 10% FBS; 48 h; 0.00702 µM
Recorded cell viability values for a group of compounds are listed next.
Reply numerically in %, unit not repeated.

Example cases with answers are listed next.
O=C(Nc1ncc(SCCN2CCCC2)s1)[C@]1(c2ccc([S+](=O)([O-])C3CC3)cc2)C[C@H]1C1CCCCC1 :: 123
COC1=C2C[C@@H](C)C[C@H](OC)[C@H](O)[C@@H](C)/C=C(\C)[C@H](OC(N)=O)[C@@H](OC)/C=C/C=C(\C)C(=O)NC(=CC1=O)C2=O :: 104
Nc1cccc2c1CN([C@H]1CCC(=O)NC1=O)C2=O :: 124

[in] Kindly state the measured cell viability obtained for Cc1[nH]c(/C=C2\C(=O)Nc3ccccc32)c(C)c1CCC(=O)O with NOMO1.
[out] 108

[in] Kindly state the measured cell viability obtained for CCC(=O)N[C@H]1CC[C@H](C(=O)N(C)c2ccc(-c3nc4ccccc4o3)cc2)C1 with NOMO1.
[out] 89.6

[in] Kindly state the measured cell viability obtained for CN1\C(=C(\O)C2=C(C=CC=C2)[S+]1([O-])=O)C(=O)NC3=CC=CC=N3 with NOMO1.
[out] 108

[in] Kindly state the measured cell viability obtained for C[C@]12CC[C@H]3[C@@H](CCC/4=C/C(=O)CC[C@]34C)[C@@H]1CC[C@@H]2O with NOMO1.
[out] 134

[in] Kindly state the measured cell viability obtained for Cn1c(=O)n(-c2ccc(C(C)(C)C#N)cc2)c2c3cc(-c4cnc5ccccc5c4)ccc3ncc21 with NOMO1.
[out] 104

====

Recorded cell viability values for a group of molecules are listed next.
Tested on: P12-Ichikawa
EXPERIMENT_DESCRIPTION: cell viability relative to DMSO control; higher = less cytotoxic
CONDITION_INFO: HPLM + 10% dialyzed FBS; 48 h; 0.000781 µM
Reply numerically in %, unit not repeated.

CNCc1ccc(-c2[nH]c3cc(F)cc4c3c2CCNC4=O)cc1 :: 109
COc1cc2nc(-c3cc(F)ccc3O)nc(N[C@@H]3CNC[C@H]3C(C)(C)O)c2cc1OC :: 104
CC1(N2CCC(n3c([C@@H]4CCCNC4)nc4ccccc43)CC2)CCCCCCC1 :: 101

[in] I'd like to know its cell viability. The molecule in question is CNC[C@H](O)c1cccc(O)c1
[out] 92

[in] I'd like to know its cell viability. The molecule in question is CCCCCCOC(=O)/N=C(/N)c1ccc(NCc2nc3cc(C(=O)N(CCC(=O)OCC)c4ccccn4)ccc3n2C)cc1
[out] 114

[in] I'd like to know its cell viability. The molecule in question is COc1ccc2[nH]c([S+]([O-])Cc3ncc(C)c(OC)c3C)nc2c1 (centres undefined)
[out] 82.5

[in] I'd like to know its cell viability. The molecule in question is CCC\C1=C\C(=O)NC(=S)N1
[out] 99.4

[in] I'd like to know its cell viability. The molecule in question is COC(=O)C1C2CC3c4[nH]c5cc(OC)ccc5c4CCN3CC2CC(OC(=O)c2cc(OC)c(OC)c(OC)c2)C1OC (centres undefined)
[out] 106

[in] I'd like to know its cell viability. The molecule in question is N[S+](=O)([O-])c1cccc2c1C(=O)c1cccc(O)c1C2=O
[out] 108

This collection of values is drawn from the supplement of paper PMC11451515.
